Test system: MDA-N
TEST: NCI tumour cell line growth inhibition, 48 h
Activity calls are given as the source filed them. Rule as the data show it: active = GI50 up to about 1.1 µM and inactive = higher.
Outcome codes: True (active), False (inactive)

MOLECULE: CNC(=O)C(C)NC(=O)C(Cc1ccccc1)NC(=O)c1ccccc1 (stereo not given)
ASSIGNED_CATEGORY: False

MOLECULE: C=C1OC(c2ccccc2NC)=NC12CCCCC2
ASSIGNED_CATEGORY: False

MOLECULE: C=CC[C@@]1(OC(C)=O)C(=O)C(=O)OC1C1COC(C)(C)O1 (stereo not given in full)
ASSIGNED_CATEGORY: False

MOLECULE: CC1=C(Nc2c(C)cc(O)cc2O)C(=O)C=c2oc3c(c21)C(C)=C(Nc1c(C)cc(O)cc1O)C(=O)C=3
ASSIGNED_CATEGORY: False

MOLECULE: CCOC(=O)CC[C@H](NC(=O)c1ccc(CNc2nc3cc(C(F)(F)F)ccc3nc2C(=O)OCC)cc1)C(=O)OCC
ASSIGNED_CATEGORY: False

MOLECULE: CC(=O)N(C(C)=O)n1c(Cc2ccc(Cl)cc2)nn(C(C)=O)c1=O
ASSIGNED_CATEGORY: False

MOLECULE: CC(C)[C@H]1C(=O)O[B@-](F)(c2ccccc2)/[N+]1=C\N(C)C
ASSIGNED_CATEGORY: False

MOLECULE: COC1=C(C)C(=O)c2c(c(COC(N)=O)c3n2CC(OC(C)=O)C3OC(C)=O)C1=O (stereo not given)
ASSIGNED_CATEGORY: True

MOLECULE: COc1cc(/C=C2\N=C(c3ccccc3)N(C3Nc4cc5c(cc4S3)NC(N3C(=O)/C(=C/c4cc(OC)c(OC)c(OC)c4)N=C3c3ccccc3)S5)C2=O)cc(OC)c1OC (stereo not given)
ASSIGNED_CATEGORY: False

MOLECULE: O=C(CC1(O)C(=O)Nc2c(Cl)ccc(Cl)c21)c1ccco1 (stereo not given)
ASSIGNED_CATEGORY: False

MOLECULE: O=c1[nH]nc(Cc2ccc([N+](=O)[O-])cc2)n1CCO
ASSIGNED_CATEGORY: False

MOLECULE: CC1OC(O[C@H]2/C=C/C=C/C=C/C=C/C=C/C=C/C=C/[C@H](C)[C@@H](O)[C@@H](C)[C@H](C)OC(=O)C[C@H](O)C[C@H](O)CC[C@@H](O)[C@H](O)C[C@H](O)C[C@]3(O)C[C@H](O)[C@@H](C(=O)O)[C@H](C2)O3)C(O)C(N)C1O (stereo not given in full)
ASSIGNED_CATEGORY: False

MOLECULE: COc1ccc(/C=C2\CSC/C(=C\c3ccc(OC)c(OC)c3OC)C2=O)c(OC)c1OC
ASSIGNED_CATEGORY: False

MOLECULE: FC(F)(F)c1cc(N(C2c3ccccc3C=Cc3ccccc32)P(Cl)Cl)cc(C(F)(F)F)c1
ASSIGNED_CATEGORY: False

MOLECULE: COC(=O)C(F)C(Br)C(=O)OC (stereo not given)
ASSIGNED_CATEGORY: False

Ref: ChEMBL document CHEMBL1201862
